# targetDesc: T1, human CD3e/d (human, UniProt P07766 23-126; P04234 22-105)
# T1 construct: Bought soluble protein; also called hCD3e/d; human CD3/ed (Sino CT038-H2508H)
# T1 sequence (P07766 23-126, chain 1 of 2): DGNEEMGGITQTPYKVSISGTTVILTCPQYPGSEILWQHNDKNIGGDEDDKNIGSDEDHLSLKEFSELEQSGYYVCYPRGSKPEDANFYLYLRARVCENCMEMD
# T1 sequence (P04234 22-105, chain 2 of 2): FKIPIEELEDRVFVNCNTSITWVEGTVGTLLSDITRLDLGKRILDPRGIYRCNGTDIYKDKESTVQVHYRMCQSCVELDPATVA
# protocol: SPR (Carterra LSA), mAb on chip

binder: mAb 177 (antibody, V domains shown, VH and VL only; The printed VL holds a letter 'U') VH: EVQLVESGGGLVQPGMSLRLSCAASGFTFDDYTMHWVRQSPGKGLEWVAGISWNSGTIGYGDSMKGRFTISRDNAKNSLDLQMNSLRVEDTALYYCAKDTSGYGHYYYYFMDVWGKGTTVTVSS VL: DIQMTQSPSSLSASIGDRVSITCRTSQIINNYLNWYQQKPGKAPKLLIYSASSLQSGVPSRFSGSGSGTDFTLTLSSLQPEDFATYFCQQSYNFPITFGQGTRLELK
Kd / nM: 41.1
--
binder: mAb 130 (antibody, V domains shown, VH and VL only) VH: EVQLVESGGGLVKTGGSLRLSCVASGFSFKKAWMNWVRQAPGKGLEWVGRIKRNSDGGATDYAAPVKDRFTLSRDDSKNTLYLQMNSLKTEDTAVYYCTTLDSSSWYVGYYYMDVWGKGTTVTVSS VL: DIHMTQSPSSVSASLGDRVTFTCRASQDINNWLAWYQQRPGKAPKLLIYTASSLQSGVPSRFSGSGSGTDFTLTISSLQPEDFATYYCQQAHSLPITFGQGTRLGIK
Kd / nM: 21.7
--
binder: mAb 167 (antibody, V domains shown, VH and VL only) VH: EVHLVESGGGLVQPGRSLRLSCAASGFTFDDYAMHWVRQAPGKGLEWVSGISWNSGTIGYADSVKGRFTISRDNAKNSLYLEMNSLRAEDTALYYCAKDSSGYGHYYHYYIDVWGTGTTVTVSS VL: EIVMTQSPATLSVSPGGRATLSCRASQSVGSNLAWYQQKPGQAPRLLIYDASTRATGIPARFRGSGSGTEFTLTISGLQSEDFAVYYCQLYYNWPHFGQGTRLEIK
Kd / nM: 6.26
